Biological target: SaPDF (Streptococcus agalactiae serotype III, UniProt Q8E378, S2A)
Construct: the recombinant protein contains all residues of the 204 amino acids mature protein
Sequence (Q8E378 whole entry S2A): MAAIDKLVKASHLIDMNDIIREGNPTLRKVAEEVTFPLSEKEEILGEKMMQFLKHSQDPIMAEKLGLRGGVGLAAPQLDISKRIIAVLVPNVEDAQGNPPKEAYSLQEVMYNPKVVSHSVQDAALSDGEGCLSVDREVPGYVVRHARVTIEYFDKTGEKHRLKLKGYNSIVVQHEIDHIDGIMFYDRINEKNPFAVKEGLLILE
Assay: biochemical
IC50 strictly less than 20 nM = met. Otherwise not met.

| compound | category |
| --- | --- |
| CCCCC(CC(=O)NO)c1nc(Cc2ccc(C(F)(F)F)cc2)no1 (stereo not shown) | not met |
| O=C(Cc1c[nH]c2ccc(Br)cc12)NO | not met |
| CCCCC(CC(=O)NO)c1nc(Cc2ccc(C)cc2)no1 (stereo not shown) | not met |
| CCCCC(CC(=O)NO)c1nc(Cc2ccc(F)cc2)no1 (stereo not shown) | met |
| CCCCC(CC(=O)NO)c1nc(Cc2nc3ccccc3s2)no1 (stereo not shown) | not met |

### Prompt Please determine if `CCCC[C@H](CC(=O)NO)c1nc(Cc2ccc(OC(F)(F)F)cc2)no1` is below 20 nM in terms of IC50.
### Response met

### Prompt Cool, now CCCCC(CC(=O)NO)c1nc(Cc2ccc(-c3ccccc3)cc2)no1 (stereo not shown)
### Response met

### Prompt Cool, now `O=C(C[C@@H](CC1CCCC1)c1nc(Cc2ccc3c(c2)OCO3)no1)NO`
### Response met

---

Biological target: SaPDF (Streptococcus agalactiae serotype III, UniProt Q8E378, S2A)
Construct: the recombinant protein contains all residues of the 204 amino acids mature protein; made in house; host or cells: E. coli Rosetta 2(DE3)pLysS
Experiment: biochemical
IC50 strictly less than 10 nM = y. Otherwise n.

Some solved cases for reference:
| molecule | category |
| --- | --- |
| CC(C)(C)OC(=O)N[C@@H](Cc1ccccc1)CN(O)C=O | n |
| O=C(Cn1cc(Cc2ccccc2)c2cc(Br)ccc21)NO | n |
| CCCCC(CC(=O)NO)c1nc(-c2ccc(C(F)(F)F)cc2)no1 (centres unmarked) | n |

### Prompt Please determine if CCCCC[C@H](CC(=O)NO)C(=O)N[C@H](C(=O)N1CCC[C@H]1CO)C(C)C [Actinonin, actinonin, reference compound] is below 10 nM in terms of IC50.
### Response y

### Prompt Cool, now `O=C(C[C@@H](CC1CCCC1)c1nc(Cc2coc3ccccc23)no1)NO`
### Response y

### Prompt Cool, now `O=C(Cc1cn(Cc2ccccc2)c2ccc(Br)cc12)NO`
### Response n

### Prompt Cool, now `CCCC[C@H](CC(=O)NO)c1nc(Cc2ccc(C(=O)O)cc2)no1`
### Response n

---

This listing pairs compounds with measured pKi.
Molecular target: SaPDF (Streptococcus agalactiae serotype III, UniProt Q8E378, S2A)
Construct: the recombinant protein contains all residues of the 204 amino acids mature protein; made in house; host or cells: E. coli Rosetta 2(DE3)pLysS
Assay: biochemical
Conditions: SaPDF KI, no pre-incubation, assay initiated by addition of enzyme; 40 nM SaPDF; 37 °C
Description: Enzymatic activity was measured by a spectrophotometric assay where peptide deformylase activity is coupled to that of formate dehydrogenase. The formate released by the deformylation reaction is used by FDH to convert NAD in NADH, the production of which being measured over time at 340 nm and controlled temperature (37 °C). […]
API: returns pKi as number; meaning -log10 of concentration in mol/L.

As a guide, the following entries are already answered.
| compound | pKi |
| --- | --- |
| CCCC[C@H](CC(=O)NO)c1nc(Cc2ccc(OC(F)(F)F)cc2)no1 | 7.15 |
| CCCCC(CC(=O)NO)c1nc(Cc2ccc(F)cc2)no1 (stereo not drawn) | 7.89 |
| CCCCC(CC(=O)NO)c1nc(Cc2ccc(C(=O)OC)cc2)no1 (stereo not drawn) | 7.42 |
| CCCCC(CC(=O)NO)c1nc(Cc2ccc(-c3ccccc3)cc2)no1 (stereo not drawn) | 7.08 |

### Prompt Consider the compound shown here: `CCCC[C@H](CC(=O)NO)c1nc(Cc2coc3ccccc23)no1` What is its recorded pKi?
### Response 6.78

### Prompt Cool, now `O=C(C[C@@H](CC1CCCC1)c1nc(Cc2coc3ccccc23)no1)NO`
### Response 7.19

### Prompt Cool, now CCCCC[C@H](CC(=O)NO)C(=O)N[C@H](C(=O)N1CCC[C@H]1CO)C(C)C [Actinonin, actinonin, reference compound]
### Response 7.19

### Prompt Cool, now `O=C(Cn1cc(Cc2ccccc2)c2cc(Br)ccc21)NO`
### Response 6.04

### Prompt Cool, now `O=C(C[C@@H](CC1CCCC1)c1nc(Cc2ccc3c(c2)OCO3)no1)NO`
### Response 7.20

---

Molecular target: AtPDF1B (Arabidopsis thaliana)
Construct: made in house
Sequence (Q9FUZ2 83-273): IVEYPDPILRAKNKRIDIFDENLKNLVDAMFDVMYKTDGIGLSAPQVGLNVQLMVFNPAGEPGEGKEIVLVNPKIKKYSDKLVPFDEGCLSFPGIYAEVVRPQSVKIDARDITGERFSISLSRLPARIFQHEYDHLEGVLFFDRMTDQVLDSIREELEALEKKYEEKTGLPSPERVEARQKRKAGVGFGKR
Assay: PDF inhibition, formate dehydrogenase-coupled spectrophotometric assay (AtPDF1B)
Assay type: biochemical
Conditions: no pre-incubation, assay initiated by addition of enzyme; 100 nM AtPDF1B; 37 °C
This listing pairs compounds with measured pKi.
API: returns pKi as number; meaning -log10 of concentration in mol/L.

| compound | readout number |
| --- | --- |
| O=C(Cc1cn(Cc2ccccc2)c2ccc(Br)cc12)NO | 6.04 |
| CC(C)(C)OC(=O)N[C@@H](Cc1ccccc1)CN(O)C=O | 5.70 |
| CCCCC[C@H](CC(=O)NO)C(=O)N[C@H](C(=O)N1CCC[C@H]1CO)C(C)C [Actinonin, actinonin, reference compound] | 7.09 |
| CCCCC(CC(=O)NO)c1nc(Cc2ccc(C(=O)OC)cc2)no1 (stereo not shown) | 5.95 |
| O=C(Cn1cc(Cc2ccccc2)c2cc(Br)ccc21)NO | 6.00 |
| CCCCC(CC(=O)NO)c1nc(Cc2ccc(F)cc2)no1 (stereo not shown) | 7.24 |
| O=C(C[C@@H](CC1CCCC1)c1nc(Cc2coc3ccccc23)no1)NO | 6.58 |
| O=C(Cc1c[nH]c2ccc(Br)cc12)NO | 6.34 |
| O=C(C[C@@H](CC1CCCC1)c1nc(Cc2ccc3c(c2)OCO3)no1)NO | 6.62 |

Now take the following compound into account.
### Prompt Consider the compound shown here: CCCCC(CC(=O)NO)c1nc(Cc2ccc(C(F)(F)F)cc2)no1 (stereo not shown) What is its recorded pKi?
### Response 6.04

---

Test system: E. aerogenes Ea294, Ea289 derivative AcrAB-
This listing pairs compounds with measured MIC.
# unit: µg/mL | format: bare number

### Prompt Consider the compound shown here: CCCCC[C@H](CC(=O)NO)C(=O)N[C@H](C(=O)N1CCC[C@H]1CO)C(C)C [Actinonin, actinonin, reference compound] What is its recorded MIC?
### Response 64

### Prompt Cool, now O=C(N[C@H](CO)[C@H](O)c1ccc([N+](=O)[O-])cc1)C(Cl)Cl [Chloramphenicol, chloramphenicol, reference compound]
### Response 32

### Prompt Cool, now CCCCC(CC(=O)NO)c1nc(-c2ccc(C(F)(F)F)cc2)no1 (stereo not drawn) [AT011]
### Response 128

### Prompt Cool, now O=C(C[C@@H](CC1CCCC1)c1nc(Cc2coc3ccccc23)no1)NO [AT019]
### Response 128

### Prompt Cool, now O=C(O)c1cn(C2CC2)c2cc(N3CCNCC3)c(F)cc2c1=O [Ciprofloxacin, ciprofloxacin, reference compound]
### Response 16

### Prompt Cool, now O=C(C[C@@H](CC1CCCC1)c1nc(Cc2ccc3c(c2)OCO3)no1)NO [AT020]
### Response 128

---

Molecular target: EcPDF (Escherichia coli, UniProt P0A6K3)
Construct: made in house
Sequence (P0A6K3 whole entry): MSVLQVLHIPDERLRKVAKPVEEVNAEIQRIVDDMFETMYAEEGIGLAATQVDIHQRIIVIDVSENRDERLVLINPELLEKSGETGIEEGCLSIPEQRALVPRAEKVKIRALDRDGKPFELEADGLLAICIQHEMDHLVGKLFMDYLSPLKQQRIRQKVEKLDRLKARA
Assay: PDF inhibition, formate dehydrogenase-coupled spectrophotometric assay (EcPDF)
Type: biochemical
Settings: EcPDF KI*app, PDFI pre-incubated with enzyme 10 min at 37 °C, started by 2 mM Fo-Met-Ala-Ser; 10 nM EcPDF
Field: class. Source value: Ki. Ranges: one: < 10 nM; two: ≥ 10 nM and < 80 nM; three: ≥ 80 nM

### Prompt Category of CCCCC(CC(=O)NO)c1nc(Cc2ccc(C(=O)OC)cc2)no1 (stereo not drawn) [AT018] :
### Response two

### Prompt Cool, now O=C(C[C@@H](CC1CCCC1)c1nc(Cc2coc3ccccc23)no1)NO [AT019]
### Response one

### Prompt Cool, now O=C(Cn1cc(Cc2ccccc2)c2cc(Br)ccc21)NO [SMP289]
### Response three

### Prompt Cool, now CCCCC(CC(=O)NO)c1nc(Cc2ccc(C)cc2)no1 (stereo not drawn) [AT012]
### Response two

### Prompt Cool, now CC(C)(C)OC(=O)N[C@@H](Cc1ccccc1)CN(O)C=O [RAS358]
### Response three

---

This listing pairs molecules with measured log10 of Ki.
Target: EcPDF (Escherichia coli)
Construct: made in house
Test: PDF inhibition, formate dehydrogenase-coupled spectrophotometric assay (EcPDF)
Assay type: biochemical
Settings: EcPDF KI, no pre-incubation, assay initiated by addition of enzyme; 10 nM EcPDF; 37 °C
Response schema: value (number) is log10 of Ki in units of nM.

As a guide, the following entries are already answered.
| molecule | log10 of Ki |
| --- | --- |
| CC(C)(C)OC(=O)N[C@@H](Cc1ccccc1)CN(O)C=O [RAS358] | 2.92 |
| O=C(Cc1cn(Cc2ccccc2)c2ccc(Br)cc12)NO [SMP195] | 1.46 |
| CCCC[C@H](CC(=O)NO)c1nc(Cc2ccc(OC(F)(F)F)cc2)no1 [AT013] | 1.86 |
| CCCCC(CC(=O)NO)c1nc(Cc2ccc(C(=O)OC)cc2)no1 (centres unmarked) [AT018] | 1.69 |
| CCCCC(CC(=O)NO)c1nc(Cc2ccc(C(F)(F)F)cc2)no1 (centres unmarked) [AT008] | 1.90 |
| CCCC[C@H](CC(=O)NO)c1nc(Cc2coc3ccccc23)no1 [AT015] | 1.54 |
| O=C(Cn1cc(Cc2ccccc2)c2cc(Br)ccc21)NO [SMP289] | 2.89 |
| O=C(C[C@@H](CC1CCCC1)c1nc(Cc2ccc3c(c2)OCO3)no1)NO [AT020] | 1.90 |

### Prompt Consider the molecule shown here: CCCCC(CC(=O)NO)c1nc(Cc2ccc(F)cc2)no1 (centres unmarked) [AT002] What is its recorded log10 of Ki?
### Response 1.49

### Prompt Cool, now O=C(C[C@@H](CC1CCCC1)c1nc(Cc2coc3ccccc23)no1)NO [AT019]
### Response 1.88

### Prompt Cool, now O=C(Cc1c[nH]c2ccc(Br)cc12)NO [AB47]
### Response 1.67
